# credit: PubChem BioAssay (NCI)

Test system: HCT-15 colon
Experiment: NCI tumour cell line growth inhibition, 48 h; in the data active = GI50 below about 0.43 µM; inactive = the rest
Possible outcomes: active, inactive

[
  {
    "compound": "Clc1ccc(Cl)c(N/N=C\\c2c[nH]c3ccccc23)c1",
    "class": "inactive"
  },
  {
    "compound": "Cc1cc2c(-c3nc4ccccc4[nH]3)c(O)c(O)cc2c(O)c1-c1c(C)cc2c(-c3nc4ccccc4[nH]3)c(O)c(O)cc2c1O",
    "class": "active"
  },
  {
    "compound": "COc1ccc(/C=C2/SC(=Nc3c(C)nn(-c4ccccc4)c3N)NC2=O)cc1",
    "class": "inactive"
  },
  {
    "compound": "COc1cc([C@@H]2c3cc4c(cc3[C@H](OC3OC5COC(c6ccccc6)OC5C(O)C3O)[C@H]3COC(=O)[C@H]23)OCO4)cc(OC)c1OC (stereo not given in full)",
    "class": "active"
  },
  {
    "compound": "COc1cc[c]([Hg][Cl])cc1",
    "class": "inactive"
  },
  {
    "compound": "O=c1ccc2nc(-c3ccccc3)nn(-c3ccccc3)c-2c1",
    "class": "inactive"
  },
  {
    "compound": "CCCCc1ccc2nc(NC(=O)OC)[nH]c2c1",
    "class": "active"
  },
  {
    "compound": "COc1ccc(C(=O)/C=C/c2ccc(Cl)cc2)cc1S(N)(=O)=O",
    "class": "inactive"
  },
  {
    "compound": "Cc1ccc(CCC(=O)Nc2ncc(Cc3cc(Cl)ccc3Cl)s2)o1",
    "class": "active"
  },
  {
    "compound": "CCN(CC)CCn1c(=N)n(CC(O)c2ccc(Cl)c(Cl)c2)c2ccccc21 (stereo not given)",
    "class": "inactive"
  }
]
